experiment: Novel Modifiers of Survival Motor Neuron (SMN) Protein: Gene Identification via Genome-wide siRNA Screen; settings: HEK293T SMN2-luciferase reporter, siRNA knockdown, 72 h; actives lie on both sides;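 also: luminescence tracks full-length SMN protein made from the SMN2 reporter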
The whole screen tested about 31,000 sequences, of which about 1,400 (4.5%) were called active. Many of the other results were omitted from the sample, so actives are more common in it than they were.

Seq String	median seed-adjusted z-score
GGGUGUCUAAAGGUACAUATT against FSD2	0.359
GGCAUGAAUUUGAACUGUATT against CA8	0.172
GAUCCAAAGUAACUAAACATT against HMGN3	-0.182
GGUUGUUAGUGGAUCAUCATT against FBXW11	0.206
GCAUCCUACCCGUUCCAUATT against MSX2	-0.406
GAAUCGCAAGGAUAUGAUATT against MSH2	0
GCGUUGACAGUGAUGCGUATT against SLC4A3	-0.7
CGUCAUCCCUCAACAAGAATT against ATP2B2	1.37
